# melting point listing for each entry below
Readout type: melting point

{"Molecule": "COc1cc2c(cc1Nc1ncc(Cl)c(N[C@H]3[C@@H](C(N)=O)[C@@H]4C=C[C@H]3C4)n1)CCN(CC(C)O)CC2 (some centres undefined)", "Readout type": "melting point", "Reported measurement": "120 °C"}
{"Molecule": "Cc1[nH]cnc1CN1CCc2c(c3cccc(F)c3n2C)C1", "Readout type": "melting point", "Reported measurement": "188 to 190 °C"}
{"Molecule": "Cc1ccccc1C(=O)NC(=O)NC1CN2CCC1CC2 (centres undefined)", "Readout type": "melting point", "Reported measurement": "216 to 217 °C"}
{"Molecule": "CC(C)c1nc(-c2ccc(F)cc2)c(-c2ccc(F)cc2)n1/C=C/[C@@H](O)C[C@@H](O)CC(=O)O", "Readout type": "melting point", "Reported measurement": "172 to 173 °C"}
{"Molecule": "O=C(O)CC(Cc1ccccc1)NC(=O)C1Cc2ccccc2N1S(=O)(=O)c1ccc(-c2cccc(C(F)(F)F)c2)cc1 (centres undefined)", "Readout type": "melting point", "Reported measurement": "78 to 82 °C"}
{"Molecule": "CCCOC(=O)N=P(c1ccccc1)(c1ccccc1)c1ccccc1", "Readout type": "melting point", "Reported measurement": "90 to 91 °C"}
{"Molecule": "COc1ccccc1CN1CCC(=O)C(C2c3ccccc3Oc3ccccc32)C1 (centres undefined)", "Readout type": "melting point", "Reported measurement": "96 to 97 °C"}
{"Molecule": "COC(=O)c1cc([N+](=O)[O-])c(C(C)(C)C)c([N+](=O)[O-])c1", "Readout type": "melting point", "Reported measurement": "115 to 117 °C"}
{"Molecule": "Cc1ccc(-c2nc(C)nn2-c2ccc(S(N)(=O)=O)cc2)cc1", "Readout type": "melting point", "Reported measurement": "248 to 249 °C"}
{"Molecule": "COc1cc2ncnc(N3CCN(C(=S)Nc4ccc(C(F)(F)F)cc4)CC3)c2cc1OC", "Readout type": "melting point", "Reported measurement": "117 to 119 °C"}
{"Molecule": "O=C(Nc1ccc(-n2nc(C(F)(F)F)cc2C(F)(F)F)cc1)C1CC=CCC1 (centres undefined)", "Readout type": "melting point", "Reported measurement": "177 to 178 °C"}
{"Molecule": "Cc1c(NC(=O)c2ccc(OC[C@@H]3CCCO3)cc2)ccc2[nH]c(CNCC(C)(C)O)cc12", "Readout type": "melting point", "Reported measurement": "169 to 170 °C"}
{"Molecule": "COc1ccc(Nc2nn3c(-c4ccc(OC)cc4)nnc3c3ccccc23)cc1", "Readout type": "melting point", "Reported measurement": "301 to 304 °C"}
{"Molecule": "O=C(c1cccnn1)c1ccccc1Cl", "Readout type": "melting point", "Reported measurement": "105 to 107 °C"}

Data origin: a melting point compilation (Tetko et al.; mined from patent text by program, amines drawn as free bases though some values may be those of a salt)
